target: human A3 receptor subtype (Homo sapiens, UniProt P0DMS8)
Construct: expressed in transfected cells; host or cells: HEK293
Sequence (P0DMS8 whole entry): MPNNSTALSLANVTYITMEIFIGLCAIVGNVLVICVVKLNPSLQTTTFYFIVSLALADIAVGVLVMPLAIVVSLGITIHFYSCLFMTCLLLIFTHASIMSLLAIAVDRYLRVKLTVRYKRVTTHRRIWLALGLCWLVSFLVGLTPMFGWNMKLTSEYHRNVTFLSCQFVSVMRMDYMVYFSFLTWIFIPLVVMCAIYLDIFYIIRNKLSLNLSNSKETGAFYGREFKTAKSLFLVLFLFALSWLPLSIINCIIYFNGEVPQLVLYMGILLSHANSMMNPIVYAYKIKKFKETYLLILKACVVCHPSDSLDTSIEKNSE
experiment-notes: Adenosine 3 receptor competition radioligand binding, [125I]AB-MECA, HEK293 membranes
assay-setup: Table 14; read-out: Binding Data K1 (nM) A3
property-name: Ki (nM)
Numbers only here, please. The scale is nM.

q: # input compound: CC(=O)NCCNc1nc(-c2ccccc2)nc2[nH]c(COc3ccc(Cl)cc3)cc12 [Compound 1402] ; wanted: its Ki
a: 60

----------
target: human adenosine A1 (A1R) (Homo sapiens)
Construct: yeast alpha-factor (MFalpha1) prepro leader (N, cleaved yes)
Sequence (P30542 1-326): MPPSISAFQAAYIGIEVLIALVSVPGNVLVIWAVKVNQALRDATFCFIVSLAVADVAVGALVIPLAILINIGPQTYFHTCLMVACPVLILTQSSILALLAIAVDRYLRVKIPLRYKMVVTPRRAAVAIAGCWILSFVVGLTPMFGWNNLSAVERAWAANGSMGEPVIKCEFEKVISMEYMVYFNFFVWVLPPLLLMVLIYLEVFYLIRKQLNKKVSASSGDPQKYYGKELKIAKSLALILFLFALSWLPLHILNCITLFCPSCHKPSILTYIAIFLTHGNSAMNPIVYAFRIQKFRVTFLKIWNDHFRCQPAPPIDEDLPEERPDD
experiment-notes: Yeast β-Galactosidase reporter gene assay, inhibition of NECA-induced activity, strain CY12660
assay-setup: Table 10
The following molecules are shown together with reported IC50 values.

Record excerpt, results attached:
{"smiles-entry": "Cc1[nH]c2nc(-c3ccccc3)nc(NCCN)c2c1C", "target": "human adenosine A1 (A1R) (Homo sapiens)", "endpoint-value": "> 10 µM"}
{"smiles-entry": "Cc1[nH]c2nc(-c3ccccc3)nc(NCCNS(C)(=O)=O)c2c1C", "target": "human adenosine A1 (A1R) (Homo sapiens)", "endpoint-value": "> 10 µM"}

--- query ---
q: # input molecule: `Cc1[nH]c2nc(-c3ccccc3)nc(NCCNC(=O)CCN)c2c1C` ; wanted: its IC50
a: > 10 µM
